- Target Or Test System: Cdc7-ASK complex (Homo sapiens)
- Experiment: ELISA system for measuring inhibition of Cdc7-ASK complex phosphorylation activity (GST-Mcm2 (1-130 a.a.) substrate, anti-Mcm2-phospho-S17 antibody)
pIC50: −log10 of the molar value.
Property: pIC50

> print(dat)
                                   compound  data.value
1  COC(=O)[C@@]1(O)C[C@H]2O[C@]1(C)n1c3ccccc3c3c4c(c5c6ccccc6n2c5c31)C(=O)NC4 [K-252a]        5.70
